PROCEDURE_SUMMARY: physchem
APPLIED_CONDITIONS: pH 6.5, aqueous buffer
Numbered stars: 1 amine (or outer) side, 2 acyl side, 3 side chain; on linkers, the order of the positions; unused ones are H or OH. Bridge positions count the residues as written; N and C are the ends. Square brackets hold non-standard residues; d marks the D form. Peptide text beside a SMILES is read from it. hPhe(3-Cl-4-CF3) = N[C@@H](CCc1ccc(C(F)(F)F)c(Cl)c1)C(=O)O; NMePhe(4-CF3) = CN[C@@H](Cc1ccc(C(F)(F)F)cc1)C(=O)O; NMePhe(4-Me) = CN[C@@H](Cc1ccc(C)cc1)C(=O)O; NMedβ3hAla = C[C@H](CC(=O)[*:2])N(C)[*:1]; Hyp = O=C(O)[C@@H]1C[C@@H](O)CN1; NMeI = CC[C@H](C)[C@H](NC)C(=O)O; NMeD = CN[C@@H](CC(=O)O)C(=O)O; NMeL = CN[C@@H](CC(C)C)C(=O)O; NMeA = CN[C@@H](C)C(=O)O; Ac5c = NC1(C(=O)O)CCCC1; Aze = O=C(O)[C@@H]1CCN1; Sar = CNCC(=O)O
Documented solubility thermodynamic across a set of molecules
Provide the reading as a plain figure in µg/mL.

MOLECULE	solubility thermodynamic (µg/mL)
CC[C@H](C)[C@@H]1NC(=O)[C@H](CC(C)C)N(C)C(=O)C[C@@H](C(=O)N(C)C)N(C)C(=O)[C@H]([C@@H](C)CC)N(C)C(=O)C2(CCCC2)NC(=O)[C@@H]2CCCN2C(=O)[C@H](CCc2ccc(C(F)(F)F)c(Cl)c2)NC(=O)CN(C)C(=O)[C@H](Cc2ccc(C)cc2)N(C)C(=O)[C@@H]2CCN2C(=O)[C@H](C)N(C)C1=O [Compound IV] ([NMeL]I[NMeA][Aze][NMePhe(4-Me)][Sar][hPhe(3-Cl-4-CF3)]P[Ac5c][NMeI][NMeD]-NMe2; lactam N-11)	20

Kindly consider the entry below.
Which measured solubility thermodynamic value corresponds to CCO[C@@H]1C[C@H]2C(=O)NC3(CCCC3)C(=O)N(C)[C@@H]([C@@H](C)CC)C(=O)N(C)[C@H](C)CC(=O)N(C)[C@@H](CC(C)C)C(=O)N[C@@H]([C@@H](C)CC)C(=O)N(C)[C@@H](C)C(=O)N3CC[C@H]3C(=O)N(C)[C@@H](Cc3ccc(C(F)(F)F)cc3)C(=O)N(C)CC(=O)N[C@@H](CCc3ccc(C(F)(F)F)c(Cl)c3)C(=O)N2C1 [Compound II] (cyclo([Ac5c][NMeI][NMedβ3hAla][NMeL]I[NMeA][Aze][NMePhe(4-CF3)][Sar][hPhe(3-Cl-4-CF3)][Hyp](Et))) ? 1
